# system-name: HLA-B*0702 (human)
# measurement-protocol: competition vs 125I-labelled probe peptide, purified HLA, gel filtration
pIC50: −log10 of the molar value.
# thresholds on pIC50 define classes: low: < 7; intermediate: ≥ 7 and < 8; high: ≥ 8

Study these solved cases before continuing.
binder: FPSETDGYI [Her2/neu.1120.F1I9]
category: low

binder: FPLPAARPA (9-mer analog of the HER2/neu peptide starting at position 1155) [Her2/neu.1155.F1]
category: intermediate

binder: FPREGPLPAI (10-mer analog of the HER2/neu peptide starting at position 1151) [Her2/neu.1151.F1I10]
category: intermediate

binder: FPGKNGVI (8-mer analog of the HER2/neu peptide starting at position 1174) [Her2/neu.1174.F1I8]
category: low

binder: FPASPLDSTI (10-mer analog of the HER2/neu peptide starting at position 995) [Her2/neu.995.F1I10]
category: intermediate

[ask] State the band of FPREGPLPI (9-mer analog of the HER2/neu peptide starting at position 1151) [Her2/neu.1151.F1I9]
[reply] high

[ask] State the band of FPRFRELVSEI (11-mer analog of the HER2/neu peptide starting at position 966) [Her2/neu.966.F1I11]
[reply] low

[ask] State the band of FPAARPAGATL (11-mer analog of the HER2/neu peptide starting at position 1157) [Her2/neu.1157.F1]
[reply] high

[ask] State the band of FPLDSTFYRSL (11-mer analog of the HER2/neu peptide starting at position 998) [Her2/neu.998.F1]
[reply] intermediate

[ask] State the band of FPASPLDSTF (10-mer analog of the HER2/neu peptide starting at position 995) [Her2/neu.995.F1]
[reply] high

[ask] State the band of FPSPREGPLPI (11-mer analog of the HER2/neu peptide starting at position 1149) [Her2/neu.1149.F1I11]
[reply] low
